# subject-of-test: Acetylcholinesterase (Homo sapiens)
# Sequence (P22303 whole entry): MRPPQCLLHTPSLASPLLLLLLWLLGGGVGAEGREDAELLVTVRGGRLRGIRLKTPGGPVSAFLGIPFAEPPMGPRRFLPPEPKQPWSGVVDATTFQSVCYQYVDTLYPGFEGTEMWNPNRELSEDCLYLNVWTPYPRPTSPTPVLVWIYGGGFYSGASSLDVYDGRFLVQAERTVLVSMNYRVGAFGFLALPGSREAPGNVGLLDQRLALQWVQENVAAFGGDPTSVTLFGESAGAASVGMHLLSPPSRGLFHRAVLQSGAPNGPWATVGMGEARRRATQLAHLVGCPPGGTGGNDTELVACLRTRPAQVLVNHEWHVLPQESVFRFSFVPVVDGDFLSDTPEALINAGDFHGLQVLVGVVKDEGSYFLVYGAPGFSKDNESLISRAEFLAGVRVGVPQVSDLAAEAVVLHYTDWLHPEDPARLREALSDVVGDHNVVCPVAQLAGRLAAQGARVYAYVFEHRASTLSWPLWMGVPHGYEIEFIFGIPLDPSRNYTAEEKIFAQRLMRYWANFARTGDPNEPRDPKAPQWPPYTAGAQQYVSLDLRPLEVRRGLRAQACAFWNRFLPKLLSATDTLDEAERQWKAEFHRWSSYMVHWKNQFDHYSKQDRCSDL
pIC50: −log10 of the molar value.
experimental-readout: pIC50

So what's the measured pIC50 for this one? CC(C)=CCC[C@@](C)(O)[C@H]1CC=C(C)CC1
> 4.35
